- Test: chemical genetic growth profiling, strain panel (AID 1159580);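 also: tested at 20 µM; growth read once vehicle control cultures reached saturation at 30 °C; lower values mean less growth of the strain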
- Conditions: S. cerevisiae deletion strains, growth OD, locus YKL085W, strain MDH1
Screen size: about 5,500 compounds; about 2,000 (36%) were called active. Roughly 18% stayed inconclusive and do not appear here. Rule as the data show it: active = normalized growth mostly below about 0.91 (no sharp cut-off); inconclusive = no clear call, values can overlap the other calls; inactive = mostly above about 0.92. This is one part of the list.
Permitted responses: active, inactive

O=C(CCCN1CCC2(CC1)C(=O)NCN2c1ccccc1)c1ccc(F)cc1 ... inactive
CC1=CC(=O)C(C(C)C)=CC1=O ... inactive
O=C(CCCN1CCC(O)(c2ccc(Cl)cc2)CC1)c1ccc(F)cc1 ... inactive
COc1ccccc1N1CCN(CCCNc2cc(=O)n(C)c(=O)n2C)CC1 ... inactive
COC(=O)C(N)CS (centres undefined) ... inactive
CO[C@@H]1[C@@H](OC(N)=O)[C@@H](O)[C@H](Oc2ccc3c(O)c(NC(=O)c4ccc(O)c(CC=C(C)C)c4)c(=O)oc3c2C)OC1(C)C ... inactive
Cc1cc(N)c2ccccc2[n+]1CCCCCCCCCC[n+]1c(C)cc(N)c2ccccc21 ... active
CCCCCC(O)C1C(=O)OC(C)C(O)/C=C/C=C/C=C/C=C/C=C(\C)C(O)CC(O)CC(O)CC(O)CC(O)CC(O)CC1O (centres undefined) ... inactive
C[C@]12CCC(=O)C=C1CCc1ccc(O)cc12 ... inactive
CCCCC(=O)O[C@]1(C(=O)CO)[C@@H](C)CC2C3CCC4=CC(=O)C=C[C@]4(C)[C@@]3(F)C(O)C[C@@]21C (some centres undefined) ... inactive

Next, consider the following molecule.
(Q) # outcome recorded in this test, key = COC(=O)C[C@H]1C(C)(C)[C@@H](O)[C@@H]2CC3=C4CC(O)O[C@@H](c5ccoc5)[C@]4(C)CCC3[C@@]1(C)C2=O (some centres undefined)
(A) inactive
